Entry source: PubChem BioAssay AID2740

method_description: TOR pathway RPL19A-GFP modulators, concentration series – cell-based, S. cerevisiae, flow cytometry, MLPCN hits, dose response (AID 2740);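 also: background is signal of the same compound in parental non-GFP s288c yeast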
assay_setup: S. cerevisiae RPL19A-GFP strain, flow cytometry fluorescence, 3 h; at 33 µM (top of the series)
I'd appreciate it if you could supply GFP fluorescence, lower = active (kMESF (background-subtracted)) values for the items below.
The response must contain the number and no unit.

QUERY: Given CC(Oc1cccc(Cl)c1)C(=O)Nc1nc(-c2ccccn2)cs1 (stereo not drawn) , respond with its GFP fluorescence, lower = active (kMESF (background-subtracted)).
RESULT: 30

QUERY: Provide one value: measured GFP fluorescence, lower = active (kMESF (background-subtracted)) of "O=C(Oc1ccnc2cc(Cl)ccc12)N1CCOCC1"
RESULT: 37.6

QUERY: Return GFP fluorescence, lower = active (kMESF (background-subtracted)) (reported value) for this compound: "COc1ccc(CCNC2=C(Cl)C(=O)N(CCc3ccccc3)C2=O)cc1OC"
RESULT: 40

QUERY: Answer with reported GFP fluorescence, lower = active (kMESF (background-subtracted)) of "COc1ccc(N=Cc2nc(-c3ccccc3)oc2OC(C)=O)cc1"
RESULT: 40.2

QUERY: For "Cc1ccc(/C=N/Nc2ncc(Cl)cc2Cl)s1" , write its GFP fluorescence, lower = active (kMESF (background-subtracted)).
RESULT: 43.1

QUERY: Output measured GFP fluorescence, lower = active (kMESF (background-subtracted)) for this item: "Oc1ccc(COCc2ccccc2)c2cccnc12"
RESULT: 46.5

QUERY: Supply recorded GFP fluorescence, lower = active (kMESF (background-subtracted)) for "Cc1c(C(=O)Nc2nc(-c3ccccn3)cs2)oc2ccccc12" here.
RESULT: 33.3

QUERY: Given "C#CCOc1c(Br)cc(/C=C2/C(=O)ON=C2C)cc1OC" , respond with its GFP fluorescence, lower = active (kMESF (background-subtracted)).
RESULT: 32.9

QUERY: State, in one line, measured GFP fluorescence, lower = active (kMESF (background-subtracted)) of "COc1ccc(/C=C2/C(=O)ON=C2c2ccccc2)cc1OC"
RESULT: 39.5

QUERY: Consider the compound CCC1(c2ccccc2)ON(c2c(Br)cccc2Br)C1=O (stereo not drawn) and give its recorded GFP fluorescence, lower = active (kMESF (background-subtracted)).
RESULT: 34.8

QUERY: Quick one: give measured GFP fluorescence, lower = active (kMESF (background-subtracted)) for CCOc1ccc(C(C)=O)cc1N1C(=O)C2C3C=CC(O3)C2C1=O (stereo not drawn)
RESULT: 42.4

QUERY: Identify measured GFP fluorescence, lower = active (kMESF (background-subtracted)) associated with "O=c1oc2cc(Oc3c([N+](=O)[O-])cc(C(F)(F)F)cc3[N+](=O)[O-])ccc2c2c1CCCC2"
RESULT: 36.1

QUERY: Please look at this compound and report its GFP fluorescence, lower = active (kMESF (background-subtracted)): "O=C(COc1ccc(F)cc1Cl)Nc1nc(-c2ccccn2)cs1"
RESULT: 35.8

QUERY: Output measured GFP fluorescence, lower = active (kMESF (background-subtracted)) for this item: "COc1cc(NC(=O)c2ccc(C)cc2)ccc1NC(=O)c1cc2ccccc2o1"
RESULT: 40.8

QUERY: Answer with reported GFP fluorescence, lower = active (kMESF (background-subtracted)) of COc1ccc(N2C(=O)CC(Sc3ncn[nH]3)C2=O)c(OC)c1 (stereo not drawn)
RESULT: 42.2

QUERY: For "CCOC(=O)c1ccc(N=Cc2nc(-c3ccccc3)oc2OC(C)=O)cc1" , write its GFP fluorescence, lower = active (kMESF (background-subtracted)).
RESULT: 41.6

QUERY: Give the reported GFP fluorescence, lower = active (kMESF (background-subtracted)) for this compound. "COc1ccc(NC2=C(Cl)C(=O)N(CCc3ccccc3)C2=O)cc1"
RESULT: 41.6

QUERY: Give reported GFP fluorescence, lower = active (kMESF (background-subtracted)) value for "Cc1c(C)c2ccc(Oc3ccc([N+](=O)[O-])cc3C(F)(F)F)c(C)c2oc1=O"
RESULT: 39.5

QUERY: Determine from records and report GFP fluorescence, lower = active (kMESF (background-subtracted)) for "Cc1ccc(C(=O)Oc2oc(-c3ccccc3)nc2C=Nc2ccc(N(C)C)cc2)cc1"
RESULT: 38.8

QUERY: Report GFP fluorescence, lower = active (kMESF (background-subtracted)), nothing else, for this compound: "O=C1C=C(Nc2ccc(Cl)cc2)C(=O)N1c1ccc(Cl)cc1"
RESULT: 39.1

QUERY: Given the compound "COc1ccc(C(=O)NC(=S)NNC(=O)c2cnccn2)cc1" , write its reported GFP fluorescence, lower = active (kMESF (background-subtracted)).
RESULT: 35.4

QUERY: Recall and state the measured GFP fluorescence, lower = active (kMESF (background-subtracted)) for "O=C(OCn1ncc(Br)c(Br)c1=O)c1ccc(F)cc1" .
RESULT: 37.3

QUERY: Indicate its recorded GFP fluorescence, lower = active (kMESF (background-subtracted)); the compound in question is "Cc1[nH]c2ccccc2c1C(=O)COC(=O)c1ccc([N+](=O)[O-])s1"
RESULT: 13.6
